Test system: Streptococcus faecalis MGH-2
Assay: In vitro antibacterial activity, microtitration dilution method (MIC)
Assay type: cell-based
Details: Enterococcus faecalis, MGH2; Streptococcus faecalis MGH-2, microtitration dilution; read-out: Minimal Inhibitory Concentration MIC
assay-readout: log10 of MIC (log10 of the value in µg/mL)
Use the decimal logarithm of MIC (µg/mL).

Here's what some known entries look like.
>  <molecule>
CCn1cc(C(=O)O)c(=O)c2c(C)c(F)c(N3CCNCC3)c(F)c21

>  <endpoint-result>
0.49

$$$$
>  <molecule>
Cc1c(F)c(N2CCNC(C)C2)cc2c1c(=O)c(C(=O)O)cn2C1CC1 (centres unmarked)

>  <endpoint-result>
-1.00

$$$$
>  <molecule>
Cc1c(F)c(N2CCC(C)(CN)C2)c(F)c2c1c(=O)c(C(=O)O)cn2C1CC1 (centres unmarked)

>  <endpoint-result>
-1.60

$$$$
>  <molecule>
Cc1c(F)c(N2CCC(N)C2)nc2c1c(=O)c(C(=O)O)cn2-c1ccc(F)cc1F (centres unmarked)

>  <endpoint-result>
-1.00

$$$$
>  <molecule>
Cc1c(F)c(N2CCC(N)C2)c(F)c2c1c(=O)c(C(=O)O)cn2C1CC1 (centres unmarked)

>  <endpoint-result>
-1.60

$$$$
>  <molecule>
Cc1c(F)c(N2CCC(C)(CN)C2)cc2c1c(=O)c(C(=O)O)cn2C1CC1 (centres unmarked)

>  <endpoint-result>
-1.00

$$$$

# log10 of MIC (molecule: Cc1c(F)c(N2CCNC(C)C2)c(F)c2c1c(=O)c(C(=O)O)cn2C1CC1 (centres unmarked) ) is -1.00

Field log10 of MIC (entry Cc1c(F)c(N2CCNCC2)cc2c1c(=O)c(C(=O)O)cn2-c1ccc(F)cc1F ) reads -0.70

For this molecule ( Cc1c(F)c(N2CCC(N)C2)cc2c1c(=O)c(C(=O)O)cn2C1CC1 (centres unmarked) ), measured log10 of MIC is -0.40

log10 of MIC recorded for this molecule, Cc1c(F)c(N2CCNCC2)c(F)c2c1c(=O)c(C(=O)O)cn2C1CC1 , is -1.30

Measured log10 of MIC, Cc1c(F)c(N2CCC(N)C2)c(Cl)c2c1c(=O)c(C(=O)O)cn2C1CC1 (centres unmarked) : -1.30

Sure, the documented log10 of MIC for Cc1c(F)c(N2CCC(N)C2)c(F)c2c1c(=O)c(C(=O)O)cn2-c1ccc(F)cc1F (centres unmarked) is -0.70

# log10 of MIC of Cc1c(F)c(N2CCNCC2)nc2c1c(=O)c(C(=O)O)cn2C1CC1 = -0.70

For Cc1c(F)c(N2CC[C@@H]([C@H](C)N)C2)nc2c1c(=O)c(C(=O)O)cn2-c1ccc(F)cc1F the molecule record lists log10 of MIC as -1.89

----------
System: Escherichia coli Vogel
Assay: In vitro antibacterial activity, microtitration dilution method (MIC)
Assay type: cell-based
Conditions: Escherichia coli Vogel, microtitration dilution; read-out: Minimal Inhibitory Concentration MIC
Description: The compounds of the invention display antibacterial activity when tested by the microtitration dilution method as described in Heifetz, et al, Antimicr. Agents & Chemoth., 6, 124 (1974), which is incorporated herein by reference. By use of this method, the followed minimum inhibitory concentration values (MICs in μg/mL) were obtained for representative compounds of the invention.
# Lookup of reported MIC keyed by entry
# answer = value followed by unit

Observe how each entry below is paired with its result.
>  <compound>
Cc1c(F)c(N2CC(C)NC(C)C2)cc2c1c(=O)c(C(=O)O)cn2-c1ccc(F)cc1F (stereo not drawn) [Ex. 17b]

>  <assay-readout>
MIC

>  <endpoint-result>
0.2 µg/mL

$$$$
>  <compound>
CCn1cc(C(=O)O)c(=O)c2c(C)c(F)c(N3CCC(N)C3)c(F)c21 (stereo not drawn)

>  <assay-readout>
MIC

>  <endpoint-result>
0.05 µg/mL

$$$$
>  <compound>
Cc1c(F)c(N2CCNCC2)c(F)c2c1c(=O)c(C(=O)O)cn2C1CC1

>  <assay-readout>
MIC

>  <endpoint-result>
0.025 µg/mL

$$$$
>  <compound>
Cc1c(F)c(N2CCC(C)(CN)C2)cc2c1c(=O)c(C(=O)O)cn2C1CC1 (stereo not drawn)

>  <assay-readout>
MIC

>  <endpoint-result>
0.1 µg/mL

$$$$

Item Cc1c(F)c(N2CCC(N)C2)c(F)c2c1c(=O)c(C(=O)O)cn2C1CC1 (stereo not drawn) ; assay system Escherichia coli Vogel; MIC reported as 0.006 µg/mL

Record Cc1c(F)c(N2CCNC(C)C2)cc2c1c(=O)c(C(=O)O)cn2-c1ccc(F)cc1F (stereo not drawn) [Ex. 17a] ; system Escherichia coli Vogel; MIC = 0.1 µg/mL

----------
Collected log10 MIC values appear next to each entry.
Test system: Streptococcus pneumoniae SV-1
Assay: In vitro antibacterial activity, microtitration dilution method (MIC)
Assay type: cell-based
Details: SV1; Streptococcus pneumoniae SV-1, microtitration dilution; read-out: Minimal Inhibitory Concentration MIC
Answers are given as log10 of MIC in µg/mL.

Solved cases below.
>  <compound>
Cc1c(F)c(N2CCC(C)(CN)C2)cc2c1c(=O)c(C(=O)O)cn2-c1ccc(F)cc1F (stereo not drawn) [Ex. 17e]

>  <log10 MIC>
-1.89

$$$$
>  <compound>
Cc1c(F)c(N2CCC(C)(CN)C2)c(F)c2c1c(=O)c(C(=O)O)cn2C1CC1 (stereo not drawn)

>  <log10 MIC>
-2.52

$$$$

# value of log10 MIC, Streptococcus pneumoniae SV-1, item Cc1c(F)c(N2CCNC(C)C2)cc2c1c(=O)c(C(=O)O)cn2C1CC1 (stereo not drawn) = -1.60

----------
Examples of molecules with documented MIC follow.
System: Staphylococcus aureus UC-76
Assay: In vitro antibacterial activity, microtitration dilution method (MIC)
Format: cell-based
Settings: UC76; Staphylococcus aureus UC-76, microtitration dilution; read-out: Minimal Inhibitory Concentration MIC
Put down the number, then write its unit next to it.

>  <molecule>
Cc1c(F)c(N2CCNCC2)c(Cl)c2c1c(=O)c(C(=O)O)cn2C1CC1

>  <MIC>
0.025 µg/mL

$$$$
>  <molecule>
Cc1c(F)c(N2CCC(N)C2)c(Cl)c2c1c(=O)c(C(=O)O)cn2C1CC1 (centres unmarked)

>  <MIC>
0.013 µg/mL

$$$$
>  <molecule>
Cc1c(F)c(N2CCC(C)(CN)C2)c(F)c2c1c(=O)c(C(=O)O)cn2C1CC1 (centres unmarked)

>  <MIC>
0.003 µg/mL

$$$$

The measured MIC associated with Cc1c(F)c(N2CCC(N)C2)c(F)c2c1c(=O)c(C(=O)O)cn2-c1ccc(F)cc1F (centres unmarked) reads 0.025 µg/mL

Kindly note the recorded MIC for Cc1c(F)c(N2CCNCC2)c(F)c2c1c(=O)c(C(=O)O)cn2C1CC1 , which is 0.025 µg/mL

----------
System: Streptococcus pyogenes C-203
# strict inequality: MIC < 0.1 µg/mL yields class 1, everything else yields class 0

>  <compound>
Cc1c(F)c(N2CCC(N)C2)c(F)c2c1c(=O)c(C(=O)O)cn2C1CC1 (stereo not drawn)

>  <class-label>
class 1

$$$$
>  <compound>
Cc1c(F)c(N2CCC(N)C2)cc2c1c(=O)c(C(=O)O)cn2-c1ccc(F)cc1F (stereo not drawn) [Ex. 17c]

>  <class-label>
class 1

$$$$
>  <compound>
Cc1c(F)c(N2CCNCC2)c(Cl)c2c1c(=O)c(C(=O)O)cn2C1CC1

>  <class-label>
class 0

$$$$
>  <compound>
Cc1c(F)c(N2CCC(C)(CN)C2)c(F)c2c1c(=O)c(C(=O)O)cn2C1CC1 (stereo not drawn)

>  <class-label>
class 1

$$$$

*Q* Lab log: compare recorded MIC with 0.1 µg/mL; is it strictly lower for Cc1c(F)c(N2CCNCC2)c(F)c2c1c(=O)c(C(=O)O)cn2-c1ccc(F)cc1F ?
*A* class 0

*Q* Would you kindly verify if MIC of Cc1c(F)c(N2CCC(N)C2)nc2c1c(=O)c(C(=O)O)cn2-c1ccc(F)cc1F (stereo not drawn) is strictly less than 0.1 µg/mL?
*A* class 1

*Q* Check if MIC falls below 0.1 µg/mL for Cc1c(F)c(N2CC[C@@H]([C@H](C)N)C2)nc2c1c(=O)c(C(=O)O)cn2-c1ccc(F)cc1F .
*A* class 1

----------
Test system: Pseudomonas aeruginosa UI-18
Experiment: In vitro antibacterial activity, microtitration dilution method (MIC)
Format: cell-based
Details: UI18; Pseudomonas aeruginosa UI-18, microtitration dilution; read-out: Minimal Inhibitory Concentration MIC
assay-readout: MIC (µg/mL)
Answer format: numeric, µg/mL implied, no suffix.

>  <compound>
Cc1c(F)c(N2CCC(C)(CN)C2)c(F)c2c1c(=O)c(C(=O)O)cn2C1CC1 (stereo not drawn)

>  <endpoint-result>
0.8

$$$$
>  <compound>
Cc1c(F)c(N2CCC(N)C2)cc2c1c(=O)c(C(=O)O)cn2-c1ccc(F)cc1F (stereo not drawn) [Ex. 17c]

>  <endpoint-result>
0.8

$$$$

The reported MIC of the compound Cc1c(F)c(N2CCNCC2)c(F)c2c1c(=O)c(C(=O)O)cn2C1CC1 was 0.2

Cc1c(F)c(N2CCNCC2)cc2c1c(=O)c(C(=O)O)cn2C1CC1 has a reported MIC of 0.2

Entry Cc1c(F)c(N2CCNCC2)c(Cl)c2c1c(=O)c(C(=O)O)cn2C1CC1 , MIC reported as 0.2
